For each record, write down the corresponding normalized growth.
Experiment: chemical genetic growth profiling, strain panel (AID 1159580);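 note: tested at 20 µM; growth read once vehicle control cultures reached saturation at 30 °C; 1 = growth at the plate median or of vehicle wells; lower values mean less growth of the strain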
Settings: S. cerevisiae deletion strains, growth OD, locus YER155C, strain BEM2, active compounds read low
The whole screen tested about 5,500 compounds, of which about 2,000 (36%) were called active. Inconclusive results (about 18%) are left out. Some of the results follow.
Enter a number only.

Ask | What does the data say about its normalized growth? Entry: Oc1ccc2c(c1)OCC1c3cc4c(cc3OC21)OCO4 (stereo not drawn)
Reply | 1

Ask | What value of measured normalized growth is listed for CC(C(=O)O)c1ccc(C(=O)c2cccs2)cc1 (stereo not drawn) ?
Reply | 0.992

Ask | Given the compound "COc1cc([C@@H]2c3cc4c(c(O)c3C[C@H]3COC(=O)[C@@H]32)OCO4)cc(OC)c1OC" , what is its reported normalized growth?
Reply | 0.994

Ask | # query: normalized growth of entry COc1ccc2c(c1O)OCC1c3cc4c(cc3OC21)OCO4 (stereo not drawn)
Reply | 1

Ask | Dear colleague, I am looking for the recorded normalized growth of the following compound: "COc1c(OC)c2occc2c2oc(=O)ccc12"
Reply | 0.962

Ask | Which measured normalized growth value corresponds to "O=C1OC(c2ccc(O)cc2)(c2ccc(O)cc2)c2ccccc21" ?
Reply | 0.994

Ask | Look up normalized growth for this compound: "Nc1nc2ncc(=O)[nH]c2c(=O)[nH]1"
Reply | 0.993

Ask | // lookup normalized growth for CC(C)NCC(O)c1cc(O)cc(O)c1 (stereo not drawn)
Reply | 1

Ask | Given the entry CO[C@@]1(NC(=O)CSCC#N)C(=O)N2C(C(=O)O)=C(CSc3nnnn3C)CSC21 (stereo partly drawn) , report its measured normalized growth.
Reply | 1.01

Ask | # query: normalized growth of entry CC1=CC2C(CC1=O)C(C)=CCC2C(C)C (stereo not drawn)
Reply | 0.948

Ask | Please report the recorded normalized growth for COC(=O)C(C)c1ccc(C(=O)c2cccs2)cc1 (stereo not drawn) .
Reply | 0.997

Ask | May I ask what normalized growth has been recorded for COc1cc2c(cc1OC)C1Cc3ccc(OC)c(OC)c3CN1CC2 (stereo not drawn) ?
Reply | 0.988

Ask | Using the record for COC(=O)C(O)c1ccccc1 (stereo not drawn) , report its normalized growth.
Reply | 0.988

* * *

Test: chemical genetic growth profiling, strain panel (AID 1159580);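 note: tested at 20 µM; growth read once vehicle control cultures reached saturation at 30 °C; 1 = growth at the plate median or of vehicle wells; lower values mean less growth of the strain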
Conditions: S. cerevisiae deletion strains, growth OD, locus YJL154C, strain vps35
Structures can show the parent of a compound that is named as a salt. The campaign covered roughly 5,500 compounds. About 2,000 (36%) were called active. Not shown: some 18% with an inconclusive outcome. No stated cut-off is given here; in the data, active means normalized growth mostly below about 0.91 (no sharp cut-off); inconclusive means no clear call, values can overlap the other calls; inactive means mostly above about 0.92. Some of the results follow. Where a SMILES comes first, the peptide text is derived from it. The star is where a group is joined. Tfa = O=C(C(F)(F)F)*
Lab note: assign the record to one of yes (1) = active, no (0) = inactive

Ask | So what was the verdict on "CCCOc1ccc(C(=O)OCCN(CC)CC)cc1N" in this test?
Reply | no (0)

Ask | Hey, what did the test say about O=C1[C@H](CCC(O)c2ccc(F)cc2)[C@@H](c2ccc(O)cc2)N1c1ccc(F)cc1 (some centres not stated) ?
Reply | no (0)

Ask | I'd appreciate the recorded outcome for CC(C)C(C)/C=C/C(C)C1CCC2C3=CC=C4CC(O)CCC4(C)C3CCC21C (configuration not stated) from this test.
Reply | no (0)

Ask | Hi, do you know how "CCCCNc1ccc(C(=O)OCCN(C)C)cc1" came out in this test?
Reply | no (0)

Ask | Hi team, can someone confirm the assay call for CC(C)C(NC(=O)C(Cc1ccc(O)cc1)NC(=O)C(NC(=O)C(F)(F)F)C(C)C)C(=O)O (stereo not drawn) (Tfa-Val-Tyr-Val-OH; configuration not given here) ?
Reply | no (0)

Ask | // return assay outcome for O=C1CC2OCC=C3CN4CC[C@]56c7ccccc7N1C5[C@H]2[C@H]3CC46 (some centres not stated)
Reply | no (0)

Ask | What outcome does the record of this test show for C#CCCCCCCCCCCCC(O)CC(O)COC(C)=O (configuration not stated) ?
Reply | no (0)

Ask | Write down the call the test reported for this molecule. Item: "CCCCC(=O)Oc1ccccc1C(=O)O"
Reply | no (0)

Ask | State the result this test recorded for "CCCCOC(=O)c1ccc(N)cc1" .
Reply | yes (1)

Ask | // return assay outcome for "COc1c2ccoc2c(OC)c2oc(=O)ccc12"
Reply | no (0)

Ask | # fetch the recorded call for "CC(C)NC[C@H](O)COc1cccc2ccccc12" here
Reply | no (0)

Ask | Could you please tell me the result logged for "CC(C)NNC(=O)c1ccncc1" in this assay?
Reply | no (0)

Ask | What call does the record list for CC(C(=O)O)c1ccc(C(=O)c2cccs2)cc1 (configuration not stated) ?
Reply | no (0)

Ask | In this assay, the call recorded for CC(=O)OCC(OC(C)=O)C(OC(C)=O)C(OC(C)=O)C(OC(C)=O)C(COC(C)=O)OC(C)=O (configuration not stated) was what?
Reply | no (0)

Ask | State the result this test recorded for "OCCOCCN1CCN(C2=Nc3ccccc3Sc3ccccc32)CC1" .
Reply | no (0)

Ask | Record lookup: outcome of this test for CC(C)NCC(O)COc1cccc2ccccc12 (configuration not stated) ?
Reply | no (0)

Ask | // param item: "COc1ccc(CCN2CCC(Nc3nc4ccccc4n3Cc3ccc(F)cc3)CC2)cc1" ; yields the recorded call
Reply | no (0)

Ask | Per the assay record, what outcome was assigned to "CC[N+](CC)(CC)CCOc1cccc(OCC[N+](CC)(CC)CC)c1OCC[N+](CC)(CC)CC" ?
Reply | no (0)

Ask | # fetch the recorded call for C=CCCCCCCCCCCCC(O)CC(O)COC(C)=O (configuration not stated) (tested in a mixture with another compound) here
Reply | no (0)

Ask | For CC(=O)OC1CCC2(C)C(=CC=C3C2CCC2(C)C3CCC2C(C)/C=C/C(C)C(C)C)C1(C)C (configuration not stated) , which call appears in the assay record?
Reply | no (0)

Ask | # fetch the recorded call for "CCCCCCOc1ccccc1C(N)=O" here
Reply | no (0)

Ask | Tell me the recorded outcome of this test for "CC(=O)OCC[C@H](C)CCC=C(C)C" .
Reply | no (0)
